system-tested: T1, MICB*005 on HCC1534 cells (human, UniProt Q29980 23-383)
T1 sequence (looked up): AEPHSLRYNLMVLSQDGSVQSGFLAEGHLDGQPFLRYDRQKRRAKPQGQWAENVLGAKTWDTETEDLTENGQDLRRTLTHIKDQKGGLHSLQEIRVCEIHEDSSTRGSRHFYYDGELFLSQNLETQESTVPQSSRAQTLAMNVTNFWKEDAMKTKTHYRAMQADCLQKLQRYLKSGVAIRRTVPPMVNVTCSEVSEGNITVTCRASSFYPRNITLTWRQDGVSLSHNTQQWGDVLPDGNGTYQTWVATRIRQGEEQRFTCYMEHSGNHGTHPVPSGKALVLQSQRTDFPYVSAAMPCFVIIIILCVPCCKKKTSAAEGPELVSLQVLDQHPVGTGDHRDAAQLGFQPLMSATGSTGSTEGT
experiment-description: cell-based or functional assay
Classify by measured % max inhibition of shedding: 1.0 if it is equal to or exceeds 50%, 0.0 if it is smaller.

The following binders have reported results that may help.
[[record]]
binder = "13A9 (antibody, V domains shown, Mouse variable domains; constant regions differ by assay) VH: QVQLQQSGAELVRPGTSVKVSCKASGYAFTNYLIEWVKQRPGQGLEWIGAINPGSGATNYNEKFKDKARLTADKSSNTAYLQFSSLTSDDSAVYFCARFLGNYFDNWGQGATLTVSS VL: DIQMTQSPASLSASVGETVTITCRASGNIHSYLAWYQQKQGKSPQLLVYYAETLADGVPSRFSGRGSGTQYSLKINSLQPEDFGSYFCQQFWTTPYTFGGGTKVEIK"
category = 1.0

[[record]]
binder = "1D5 (antibody, V domains shown, Mouse variable domains; constant regions differ by assay (human IgG1 or mouse IgG2a); also called anti-MIC 1D5) VH: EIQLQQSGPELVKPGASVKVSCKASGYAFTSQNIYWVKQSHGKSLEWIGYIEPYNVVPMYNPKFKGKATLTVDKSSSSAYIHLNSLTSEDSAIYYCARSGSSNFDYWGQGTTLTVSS VL: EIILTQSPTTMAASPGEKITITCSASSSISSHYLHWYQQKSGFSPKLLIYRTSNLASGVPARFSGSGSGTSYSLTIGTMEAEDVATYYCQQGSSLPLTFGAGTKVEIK"
category = 1.0

[[record]]
binder = "12H10 (antibody, V domains shown, Mouse variable domains; constant regions differ by assay) VH: DVQLQESGPGLVKPSQPLSLTCTVTGYSITSNYAWNWIRQFPGDKLEWMGYISSSGITKSNPSLKSRISITRDTSKNQFFLQLNSLTTEDTATYYCSRWSNWSFDVWGAGTTVTVSS VL: DIQMTQTPSSLSVSLGDRVTINCRASQDIHNYFNWYQQKPDGTIKLLIYYTSRFHSGVPSRFSGSGSGTDYSLTISNLEEEDIATYFCQQGNSLPPTFGGGTKLEIK"
category = 1.0

[[record]]
binder = "15F11 (antibody, V domains shown, Mouse variable domains; constant regions differ by assay) VH: EIQLQQSGPELVKPGASVRVSCKPSGYAFTSNNIYWVKQSRRKSLEWIGYIDPYIGRIIYNQQFKDKATLTVDKSSSTAYMHLNSLTSEDSAVYYCSRSGERSNFDYWGQGTTLTVSS VL: EIVLTQSPTAMAASPGEKITITCSASSSISSNYLHWYQQKPGFSPKLLIYRTSNLASGVPARFSGSGSGTSYSLTIGPMEAEDVATYYCQQGGSLPLTFGAGTKVEIK"
category = 1.0


Next, consider the following binder.
Please tell me: is the binder 18G3 (antibody, V domains shown, Mouse variable domains; constant regions differ by assay) VH: VQLQESGPGLVKPSQSLSLTCNVTGYSITGDYAWNWIRQFPGNKLEWIGYIGYTGSTTYNPSLKSRVSITRDTSKNQFFLQLNSVTPEDTATYYCARWRNWAMDYWGLGTSVTVSS VL: DIQMTQTPSSLSASLGDRVTISCRANQDISHYLNWYQQKPDGAVKLLIYYTSRIHSGVPSRFSGSGSGTDYSLTIANLEQEDVATYFCQQGNTPPTTFGGGTKVEIK at or over 50% in terms of % max inhibition of shedding? 0.0
